Reference for the values: PubChem BioAssay (NCI)

Measured TGI, listed per entry.
system: OVCAR-5 ovarian; assay: NCI tumour cell line growth inhibition, 48 h

{"Compound": "COc1ccc2c(c1O)[C@@]13C=C(O)C(=O)C=C1[C@@H](C2)N(C)CC3", "Target of assay": "OVCAR-5 ovarian", "TGI": "> 100 µM"}
{"Compound": "CSc1c(C(C)=O)c(O)n(-c2ccc(Cl)cc2)c(=O)c1C#N", "Target of assay": "OVCAR-5 ovarian", "TGI": "> 100 µM"}
{"Compound": "Cc1cnc(Cl)nc1C(C#N)c1nc2ccccc2n1C (stereo not drawn)", "Target of assay": "OVCAR-5 ovarian", "TGI": "> 100 µM"}

* * *

system: SF-539 CNS; assay: NCI tumour cell line growth inhibition, 48 h
Recorded endpoint: GI50

{"Smiles repr": "COc1ccccc1Cn1cc2c(c1)-c1oncc1CC2", "Meas value": "0.453 µM"}
{"Smiles repr": "COc1ccc2nc3ccc(OC)cc3c(SCCCN)c2c1", "Meas value": "13.7 µM"}
{"Smiles repr": "CC(C)OP(=O)(OC(C)C)C(N(C)C)P(=O)(OC(C)C)OC(C)C.[Cl][Sn]([Cl])([Cl])[c]1ccccc1", "Meas value": "3.46 µM"}

* * *

tested on: SW-620 colon; assay: NCI tumour cell line growth inhibition, 48 h
Measured TGI, listed per entry.

{"Molecule": "Cc1cs/c(=N\\C(P(=O)(O)O)P(=O)(O)O)n1C", "TGI": "> 100 µM"}
{"Molecule": "Cn1c(=O)c2c3oc(=O)cc(O)c3c(=O)n3c4ccccc4n(c1=O)c23", "TGI": "> 100 µM"}
{"Molecule": "COc1ccc(C[C@H]2C[C@@H](O)[C@@H](C)C/C=C/Cc3cccc(O)c3C(=O)O2)cn1", "TGI": "> 100 µM"}
{"Molecule": "O=C(CCCCCCCCC(=O)OCC1OC(n2cnc3c(=O)[nH]cnc32)C(O)C1O)OCC1OC(n2cnc3c(=O)[nH]cnc32)C(O)C1O (configuration not stated)", "TGI": "> 100 µM"}
{"Molecule": "Cc1cccc(NC(=O)CC(=O)N2N=C(N3c4ccccc4Sc4ccccc43)CC2c2ccccc2)c1 (configuration not stated)", "TGI": "> 100 µM"}
{"Molecule": "O=c1c(Cc2ccc(Cl)cc2)nnc2sc(-c3ccc([N+](=O)[O-])cc3)nn12", "TGI": "80.8 µM"}
{"Molecule": "COC(=O)C(C)N1C(=O)c2ccccc2I1OC(C)=O (configuration not stated)", "TGI": "29.5 µM"}
{"Molecule": "CC1(C)OC[C@@H](/C=C\\CCO[Si](c2ccccc2)(c2ccccc2)C(C)(C)C)N1C(=O)c1ccccc1", "TGI": "> 100 µM"}
{"Molecule": "C=C(CCOC)CCC1CCCCC(=C)C1=O (configuration not stated)", "TGI": "> 100 µM"}
{"Molecule": "O=C1c2ccccc2S(=O)(=O)c2ccccc21", "TGI": "> 100 µM"}
{"Molecule": "Cc1c(C(C)C)cc(OCCO)cc1C(C)C", "TGI": "> 100 µM"}
{"Molecule": "CCOC(=O)C1C(c2cc(OC)c(O)c(OC)c2)c2cc3c(cc2OC1(C)O)OCO3 (configuration not stated)", "TGI": "> 100 µM"}
{"Molecule": "S=C(Nc1ccccc1)Nc1[nH]c(=S)sc1-c1nc2ccccc2[nH]1", "TGI": "> 100 µM"}
{"Molecule": "O=C1[C@H]2C(c3ccccc3)=NN(C(=O)c3ccccc3)[C@H]2C(=O)N1c1ccccc1", "TGI": "> 100 µM"}
{"Molecule": "c1ccc2c(c1)CCCc1cc3ccccc3nc1-2", "TGI": "> 100 µM"}
{"Molecule": "Oc1cccc(-c2nc3ccccc3s2)c1", "TGI": "> 100 µM"}
{"Molecule": "Cc1ccc2c(c1)c(=O)c1c(NCCN(C)C)ccc3nnn2c31", "TGI": "18 µM"}
{"Molecule": "CC(=O)N(C(C)=O)n1c(Cc2ccc(Cl)cc2)nn(C(C)=O)c1=O", "TGI": "> 100 µM"}
{"Molecule": "COc1ccccc1Cn1cc2c(c1)-c1oncc1CC2", "TGI": "> 100 µM"}
{"Molecule": "NC(N)=N/N=C(\\c1ccc(Cl)cc1)C1CC1", "TGI": "35.2 µM"}
{"Molecule": "CSc1c(C(C)=O)c(O)n(-c2ccc(Cl)cc2)c(=O)c1C#N", "TGI": "> 100 µM"}
{"Molecule": "C/C(=N\\N=C(N)N)c1c(C(=O)OCCCCCCOC(=O)c2nc3sccn3c2/C(C)=N/N=C(N)N)nc2sccn12", "TGI": "> 100 µM"}
